I'd be grateful if you could share measured viability at 24 h, 20 µM for these entries.
- RUN DESCRIPTION: Cytotoxicity
- Format: cell-based
- SETTINGS: mouse, BV2 microglial cells
One number for each entry, in %.

Here's what some known entries look like.
1. COc1cc2c(ccc3cc(OC)c(O)c(OC)c32)cc1O [Compound 8] = 108
2. O=C(O)c1ccc(CO)cc1 [Compound 15, 4-hydroxymethyl benzoic acid] = 111
3. O=C(O)c1ccc(O)cc1 [Compound 10, p-hydroxybenzoic acid] = 104
4. COc1cc(O)cc2c1-c1c(O)cccc1CC2 [Compound 7, hircinol] = 112
5. COc1ccc2c(c1O)CCc1cc(O)cc(OC)c1-2 [Compound 4] = 101

Batch request: viability at 24 h, 20 µM for each of the following compounds.
1. O=Cc1ccc(O)cc1 [Compound 5, p-hydroxybenzaldehyde]
2. COC1=CC(=O)c2ccc3cc(OC)c(OC)c(OC)c3c2C1=O [Compound 3]
3. COc1cc(/C=C/C(=O)NCCc2ccc(O)cc2)ccc1O [Compound 17, N-trans-feruloyl tyramine]
4. COc1cc2ccc3cccc(O)c3c2c(OC)c1O [Compound 9, bulbophyllanthrin]
5. COC1=CC(=O)c2c(ccc3cc(OC)c(OC)c(OC)c23)C1=O [Compound 1]
6. COc1cc(O)c(Cc2ccc(O)cc2)c2c1-c1ccc(O)cc1CC2 [Compound 14]
7. COc1cc(C(=O)O)ccc1O [Compound 11, vanillic acid]

[101, 94.9, 101, 105, 105, 91.9, 98.8]

---

- RUN DESCRIPTION: Cytotoxicity
- Format: cell-based
- SETTINGS: mouse, BV2 microglial cells
I'd be grateful if you could share measured viability at 24 h, 40 µM for these entries.
One number for each entry, in %.

Here's what some known entries look like.
1. COc1cc2c(ccc3cc(OC)c(O)c(OC)c32)cc1O = 113
2. COC1=CC(=O)c2ccc3cc(OC)c(OC)c(OC)c3c2C1=O = 88.8

Please list viability at 24 h, 40 µM recorded for the compound COC1=CC(=O)c2c(ccc3cc(OC)c(OC)c(OC)c23)C1=O
102
